- assay-system: rat CB2 (Rattus norvegicus, UniProt Q9QZN9)
- Sequence (Q9QZN9 whole entry): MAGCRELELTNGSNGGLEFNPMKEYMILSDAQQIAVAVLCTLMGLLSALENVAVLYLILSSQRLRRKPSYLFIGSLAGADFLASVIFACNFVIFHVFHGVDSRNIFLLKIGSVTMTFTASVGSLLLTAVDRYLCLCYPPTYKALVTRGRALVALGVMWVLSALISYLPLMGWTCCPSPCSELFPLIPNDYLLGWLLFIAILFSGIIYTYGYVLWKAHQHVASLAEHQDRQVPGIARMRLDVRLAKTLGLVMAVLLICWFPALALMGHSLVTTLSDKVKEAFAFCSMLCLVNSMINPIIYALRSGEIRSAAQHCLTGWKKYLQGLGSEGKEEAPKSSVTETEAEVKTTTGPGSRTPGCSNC
- assay-summary: rat CB2 radioligand binding assay ([3H]CP 55,940 competition)
- Parameters: expressed in transfected cells; host or cells: HEK293
- assay-context: rat CB2 (Ki, nM), HEK293 membranes, 0.5 nM [3H]CP 55,940
property: Ki

compound	assay-system	Ki
C[C@H](O)COc1ccc(C(F)(F)F)cc1C(=O)/N=c1\cc(C(C)(C)C)n(C)n1C[C@H]1CCCO1 [Example 98]	rat CB2 (Rattus norvegicus, UniProt Q9QZN9)	6.6 nM
C[C@H](O)[C@H](C)Oc1ccc(C(F)(F)F)cc1C(=O)/N=c1\cc(C(C)(C)C)n(C)n1C[C@H]1CCCO1 [Example 103]	rat CB2 (Rattus norvegicus, UniProt Q9QZN9)	1.7 nM
CCC(C)(O)COc1ccc(C(F)(F)F)cc1C(=O)/N=c1\cc(C(C)(C)C)n(C)n1C[C@H]1CCCO1 (stereo partly shown) [Example 110]	rat CB2 (Rattus norvegicus, UniProt Q9QZN9)	1.6 nM
CCCCn1ccc(C(C)(C)C)c/c1=N\C(=O)c1cc(C(F)(F)F)ccc1OCC(C)(C)O [Example 92]	rat CB2 (Rattus norvegicus, UniProt Q9QZN9)	47 nM
Cn1c(C(C)(C)C)c/c(=N\C(=O)c2cc(C(F)(F)F)ccc2OCC(C)(C)O)n1CC1CCC1 [Example 86]	rat CB2 (Rattus norvegicus, UniProt Q9QZN9)	4.3 nM

Exercise: Please give measured Ki of the following entry: CSCCCCOc1ccc(C(F)(F)F)cc1C(=O)/N=c1\cc(C(C)(C)C)n(C)n1C[C@H]1CCCO1 [Example 82]
Solution: 2.6 nM

Exercise: Please give measured Ki of the following entry: Cn1c(C(C)(C)C)c/c(=N\C(=O)c2cc(C(F)(F)F)ccc2OCC(C)(C)O)n1CC1CCCC1 [Example 106]
Solution: 8.7 nM
